B1: LOC100129726 (parent)
chain: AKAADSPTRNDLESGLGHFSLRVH

Variants of: B1
Test: protein stability index of a GFP-peptide fusion (GPS, HEK-293T) (PSI 1-6); higher = more stable;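 also: lentivirally expressed fusions sorted by FACS into six bins by GFP to DsRed ratio, PSI derived from sequencing read proportions per bin multiplied by bin number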
Details: c terminus: a fixed tail appended
Hi there, I'd appreciate the recorded protein stability index for every entry that follows.
Lab note: write the figure by itself, no unit.

-- ask Using the record for AKAADSPTRNPLESGLGHFSLRVH [D11P] , report its protein stability index.
-- reply 2.35

-- ask Using the record for AKAADSPTRNDLESGLGQFSLRVH [H18Q] , report its protein stability index.
-- reply 3.44

-- ask Using the record for AKAADSPTRNDLESGLGHGSLRVH [F19G] , report its protein stability index.
-- reply 4.32

-- ask Using the record for AKAADSPTRNDLESGTGHFSLRVH [L16T] , report its protein stability index.
-- reply 3.8

-- ask Using the record for AKAADSPTRNDLESGLGHFSLRVW [H24W] , report its protein stability index.
-- reply 2.09

-- ask Using the record for AKAADSPTRNDLESGLTHFSLRVH [G17T] , report its protein stability index.
-- reply 2.56

-- ask Using the record for AKAADSPTGNDLESGLGHFSLRVH [R9G] , report its protein stability index.
-- reply 3.84

-- ask Using the record for AKAADSPTRNDLESGLCHFSLRVH [G17C] , report its protein stability index.
-- reply 2.85

-- ask Using the record for AKAADWPTRNDLESGLGHFSLRVH [S6W] , report its protein stability index.
-- reply 1.92

-- ask Using the record for AKADDSPTRNDLESGLGHFSLRVH [A4D] , report its protein stability index.
-- reply 3.87

-- ask Using the record for AKAADSPTSNDLESGLGHFSLRVH [R9S] , report its protein stability index.
-- reply 3.25

-- ask Using the record for AKAADSPTRNDLESGLGHFSLTVH [R22T] , report its protein stability index.
-- reply 2.8

-- ask Using the record for AKAADSPTRNDLESGLGHFSLRLH [V23L] , report its protein stability index.
-- reply 2.88

-- ask Using the record for ASAADSPTRNDLESGLGHFSLRVH [K2S] , report its protein stability index.
-- reply 2.99

-- ask Using the record for AKAANSPTRNDLESGLGHFSLRVH [D5N] , report its protein stability index.
-- reply 2.81

-- ask Using the record for AKAADSPTRNDLESGLGFFSLRVH [H18F] , report its protein stability index.
-- reply 2.1

-- ask Using the record for AKAADSPTRNDLESGLGHMSLRVH [F19M] , report its protein stability index.
-- reply 3.69

-- ask Using the record for AKAADSPTRNDLESGLGHFPLRVH [S20P] , report its protein stability index.
-- reply 3.81

-- ask Using the record for AKAADSPTRNDLESGLGHHSLRVH [F19H] , report its protein stability index.
-- reply 3.67

-- ask Using the record for AKAADSPTRNDDESGLGHFSLRVH [L12D] , report its protein stability index.
-- reply 3.9

-- ask Using the record for AKAADSPTRNDLFSGLGHFSLRVH [E13F] , report its protein stability index.
-- reply 2.19

-- ask Using the record for AKAADSPTRNDLESGLKHFSLRVH [G17K] , report its protein stability index.
-- reply 2.89

-- ask Using the record for AKAADSPTRNDLESGLGHFNLRVH [S20N] , report its protein stability index.
-- reply 3.45

-- ask Using the record for AKAADSPTRNDLESGLGHFSLRVL [H24L] , report its protein stability index.
-- reply 2.59

-- ask Using the record for AKAADSPTRNDLESGLGHFSLRQH [V23Q] , report its protein stability index.
-- reply 3.58

-- ask Using the record for AKAADSCTRNDLESGLGHFSLRVH [P7C] , report its protein stability index.
-- reply 2.16

-- ask Using the record for AKAADSPTRNDLESGLGHFSLREH [V23E] , report its protein stability index.
-- reply 4.69

-- ask Using the record for AKAADSPTRNDLESGLSHFSLRVH [G17S] , report its protein stability index.
-- reply 2.84

-- ask Using the record for AKAADSPTRNDLESGLFHFSLRVH [G17F] , report its protein stability index.
-- reply 2.08

-- ask Using the record for AKNADSPTRNDLESGLGHFSLRVH [A3N] , report its protein stability index.
-- reply 2.97

-- ask Using the record for AKALDSPTRNDLESGLGHFSLRVH [A4L] , report its protein stability index.
-- reply 2.95

-- ask Using the record for AKAFDSPTRNDLESGLGHFSLRVH [A4F] , report its protein stability index.
-- reply 2.31

-- ask Using the record for AKAADSPTRNDLEAGLGHFSLRVH [S14A] , report its protein stability index.
-- reply 3.28

-- ask Using the record for AKAADSPTRNDLMSGLGHFSLRVH [E13M] , report its protein stability index.
-- reply 2.15

-- ask Using the record for AKAADSPTRNDLESGLGHFSIRVH [L21I] , report its protein stability index.
-- reply 2.33

-- ask Using the record for AKAADSPTRNDGESGLGHFSLRVH [L12G] , report its protein stability index.
-- reply 3.52

-- ask Using the record for AKAQDSPTRNDLESGLGHFSLRVH [A4Q] , report its protein stability index.
-- reply 3.15

-- ask Using the record for EKAADSPTRNDLESGLGHFSLRVH [A1E] , report its protein stability index.
-- reply 3.47

-- ask Using the record for AKAADSPTRNDLESGLGHFSTRVH [L21T] , report its protein stability index.
-- reply 4.08

-- ask Using the record for AKAADSPTRYDLESGLGHFSLRVH [N10Y] , report its protein stability index.
-- reply 1.97

-- ask Using the record for AKAADSPTRNDLESGLGHFSLRVK [H24K] , report its protein stability index.
-- reply 3.92

-- ask Using the record for ANAADSPTRNDLESGLGHFSLRVH [K2N] , report its protein stability index.
-- reply 2.88

-- ask Using the record for AKAADSPTRNDKESGLGHFSLRVH [L12K] , report its protein stability index.
-- reply 3.92

-- ask Using the record for AQAADSPTRNDLESGLGHFSLRVH [K2Q] , report its protein stability index.
-- reply 2.69

-- ask Using the record for AKIADSPTRNDLESGLGHFSLRVH [A3I] , report its protein stability index.
-- reply 2.69

-- ask Using the record for AKAADSPTRNDLESGLGHFRLRVH [S20R] , report its protein stability index.
-- reply 2.19

-- ask Using the record for AKAADSPTRNDLESGLGHFDLRVH [S20D] , report its protein stability index.
-- reply 3.46

-- ask Using the record for AKAADSKTRNDLESGLGHFSLRVH [P7K] , report its protein stability index.
-- reply 2.92

-- ask Using the record for AKAAESPTRNDLESGLGHFSLRVH [D5E] , report its protein stability index.
-- reply 3.16

-- ask Using the record for AMAADSPTRNDLESGLGHFSLRVH [K2M] , report its protein stability index.
-- reply 2.78

-- ask Using the record for AKAADNPTRNDLESGLGHFSLRVH [S6N] , report its protein stability index.
-- reply 3.58

-- ask Using the record for AKAADSPTRNDLESALGHFSLRVH [G15A] , report its protein stability index.
-- reply 2.4

-- ask Using the record for AKAAKSPTRNDLESGLGHFSLRVH [D5K] , report its protein stability index.
-- reply 3.19

-- ask Using the record for AKAATSPTRNDLESGLGHFSLRVH [D5T] , report its protein stability index.
-- reply 2.61

-- ask Using the record for AKAADSPTRNDLESGLGHFSLRSH [V23S] , report its protein stability index.
-- reply 3.48

-- ask Using the record for AKAADSPTRRDLESGLGHFSLRVH [N10R] , report its protein stability index.
-- reply 3.17

-- ask Using the record for AKAADSPTRNDLESGLGRFSLRVH [H18R] , report its protein stability index.
-- reply 3.08

-- ask Using the record for AKAADSPTRNILESGLGHFSLRVH [D11I] , report its protein stability index.
-- reply 1.96

-- ask Using the record for AKAADSPTRNDLESGLGHFSLRVM [H24M] , report its protein stability index.
-- reply 2.25

-- ask Using the record for AKAADSPFRNDLESGLGHFSLRVH [T8F] , report its protein stability index.
-- reply 2.35

-- ask Using the record for ADAADSPTRNDLESGLGHFSLRVH [K2D] , report its protein stability index.
-- reply 3.55

-- ask Using the record for KKAADSPTRNDLESGLGHFSLRVH [A1K] , report its protein stability index.
-- reply 3.34

-- ask Using the record for YKAADSPTRNDLESGLGHFSLRVH [A1Y] , report its protein stability index.
-- reply 3.34

-- ask Using the record for AKAADSPTRNDLESGLGHFSLYVH [R22Y] , report its protein stability index.
-- reply 2.31

-- ask Using the record for AKAAISPTRNDLESGLGHFSLRVH [D5I] , report its protein stability index.
-- reply 2.65

-- ask Using the record for AKAADSPTRADLESGLGHFSLRVH [N10A] , report its protein stability index.
-- reply 3.06

-- ask Using the record for CKAADSPTRNDLESGLGHFSLRVH [A1C] , report its protein stability index.
-- reply 2.1

-- ask Using the record for AKAADSPTRNDLESGLGDFSLRVH [H18D] , report its protein stability index.
-- reply 4.08

-- ask Using the record for AKAADSPTRNDLESGLGHFSLAVH [R22A] , report its protein stability index.
-- reply 3.47

-- ask Using the record for AKAAWSPTRNDLESGLGHFSLRVH [D5W] , report its protein stability index.
-- reply 2.14

-- ask Using the record for AKAADSPTRNDLESGLGHFSLRWH [V23W] , report its protein stability index.
-- reply 2.14

-- ask Using the record for AKAADSPTRNDLQSGLGHFSLRVH [E13Q] , report its protein stability index.
-- reply 2.3

-- ask Using the record for AKAADSPLRNDLESGLGHFSLRVH [T8L] , report its protein stability index.
-- reply 2.13

-- ask Using the record for AKAADSPTRNDNESGLGHFSLRVH [L12N] , report its protein stability index.
-- reply 4.16

-- ask Using the record for AKAMDSPTRNDLESGLGHFSLRVH [A4M] , report its protein stability index.
-- reply 2.54

-- ask Using the record for AKAADSPTRNDLESGLGHFSLDVH [R22D] , report its protein stability index.
-- reply 4.28

-- ask Using the record for AKAADSPTRNDLESRLGHFSLRVH [G15R] , report its protein stability index.
-- reply 2.06

-- ask Using the record for AKAADSPTRNDHESGLGHFSLRVH [L12H] , report its protein stability index.
-- reply 3.57

-- ask Using the record for AKAADSPTRNDLEHGLGHFSLRVH [S14H] , report its protein stability index.
-- reply 3.21

-- ask Using the record for AKAADSPPRNDLESGLGHFSLRVH [T8P] , report its protein stability index.
-- reply 3.38

-- ask Using the record for AKWADSPTRNDLESGLGHFSLRVH [A3W] , report its protein stability index.
-- reply 2.21

-- ask Using the record for AKAADSPTRNDLESGLGHFSRRVH [L21R] , report its protein stability index.
-- reply 2.98

-- ask Using the record for AKAADSPTRNDLESGHGHFSLRVH [L16H] , report its protein stability index.
-- reply 3.44
